- Experimental System: murine SR-BI (Mus musculus, UniProt Q61009)
- Construct: expressed in transfected cells; host or cells: ldlA-7 (LDL receptor deficient Chinese hamster ovary cells)
- Sequence (Q61009 1-509): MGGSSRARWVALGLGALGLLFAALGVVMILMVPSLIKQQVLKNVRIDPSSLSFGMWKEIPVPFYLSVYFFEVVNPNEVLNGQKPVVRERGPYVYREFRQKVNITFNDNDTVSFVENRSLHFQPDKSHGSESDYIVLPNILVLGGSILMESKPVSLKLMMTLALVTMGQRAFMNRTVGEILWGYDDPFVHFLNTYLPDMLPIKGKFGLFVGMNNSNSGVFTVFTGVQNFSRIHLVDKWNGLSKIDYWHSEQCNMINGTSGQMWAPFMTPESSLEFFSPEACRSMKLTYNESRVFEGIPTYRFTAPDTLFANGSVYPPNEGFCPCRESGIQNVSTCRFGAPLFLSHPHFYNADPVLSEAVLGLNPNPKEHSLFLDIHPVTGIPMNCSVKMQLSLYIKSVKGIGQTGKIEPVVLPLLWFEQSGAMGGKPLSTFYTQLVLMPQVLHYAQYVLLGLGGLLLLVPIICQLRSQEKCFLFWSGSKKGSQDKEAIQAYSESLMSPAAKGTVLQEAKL
- Procedure Summary: Uptake of DiI from DiI-HDL by ldlA[mSR-BI] cells (high throughput screen and concentration dependence)
- Type: cell-based
- Run Conditions: Test 2
Label 1 when ENDOHDL Test 2 >= 0.7; otherwise -1.

> print(dat)
                                    molecule                       experimental.system  category
 1  CC1(C)CC(=O)C(=Cc2c(Cl)ccc3ccccc23)C(=O)C1  murine SR-BI (Mus musculus, UniProt Q61009)         1
 2  COc1ccc(N/N=C2\C(=O)ON=C2c2ccc(OC)cc2)cc1  murine SR-BI (Mus musculus, UniProt Q61009)        -1
 3  O=C(Nc1ccc2c(c1)S(=O)(=O)c1cc(NC(=O)c3cccc4ccccc34)ccc1-2)c1cccc2ccccc12  murine SR-BI (Mus musculus, UniProt Q61009)        -1
 4  CC(C)C(=O)NC(NC(=S)Nc1cccc(C(=O)Cl)c1)C(Cl)(Cl)Cl (centres unmarked)  murine SR-BI (Mus musculus, UniProt Q61009)         1
 5         C/C(CS(=O)(=O)c1ccccc1)=N/NC(N)=S  murine SR-BI (Mus musculus, UniProt Q61009)        -1
 6  Cc1nc(Cl)c(C(c2cc([N+](=O)[O-])ccc2Cl)c2c(Cl)nc(C)nc2Cl)c(Cl)n1  murine SR-BI (Mus musculus, UniProt Q61009)         1
 7        C/C(=N\NC(=O)COc1ccc(I)cc1)c1cccs1  murine SR-BI (Mus musculus, UniProt Q61009)         1
 8           O=C(N/N=C\c1ccccc1O)c1ccc(O)cc1  murine SR-BI (Mus musculus, UniProt Q61009)        -1
 9  O=C1CC(N2CCOCC2)C(=O)N1c1ccc(Br)cc1 (centres unmarked) [MIT 9952-3]  murine SR-BI (Mus musculus, UniProt Q61009)         1
10  O=C1Nc2ccc([N+](=O)[O-])cc2/C1=N/NC(=O)C1C2CCCCC21 (centres unmarked)  murine SR-BI (Mus musculus, UniProt Q61009)        -1
11  Cc1ccc(NC(=O)c2ccc([N+](=O)[O-])c(C)c2)cc1Cl  murine SR-BI (Mus musculus, UniProt Q61009)        -1
12  CCN(CC)S(=O)(=O)c1cc(C(=O)Nc2ccc(Br)cc2)ccc1Br  murine SR-BI (Mus musculus, UniProt Q61009)        -1
13  Cc1ccc(C(C)C)cc1OCC(=O)N/N=C\c1cc([N+](=O)[O-])ccc1O  murine SR-BI (Mus musculus, UniProt Q61009)        -1
14  COc1ccc(OC)c(NC(=O)c2cc([N+](=O)[O-])c(C)c([N+](=O)[O-])c2)c1  murine SR-BI (Mus musculus, UniProt Q61009)        -1
15                    O=C(O)CCNC(=O)c1ccccc1  murine SR-BI (Mus musculus, UniProt Q61009)         1
16  Cc1cccc(C(=O)Nc2cccc(-c3nc4c(C)cccc4o3)c2)c1  murine SR-BI (Mus musculus, UniProt Q61009)        -1
17         O=C(/C=C/c1ccccc1)Nc1cccc(Cl)c1Cl  murine SR-BI (Mus musculus, UniProt Q61009)        -1
18  O=C(Oc1ccc2c(=O)c(Oc3ccccc3)coc2c1)C1CCCN1C(=O)OCc1ccccc1 (centres unmarked)  murine SR-BI (Mus musculus, UniProt Q61009)         1
19  Nc1ccc(C(=O)Nc2ccc(-c3nc4ccc(NC(=O)c5ccc(N)cc5)c(Cl)c4[nH]3)cc2Cl)cc1  murine SR-BI (Mus musculus, UniProt Q61009)        -1
20         CCCCC1(OC(=O)Nc2ccc(Cl)cc2)CCCCC1  murine SR-BI (Mus musculus, UniProt Q61009)        -1
21  Nc1c(C(=O)c2ccc(Br)cc2)sc2nc(-c3ccccc3)c3c(c12)CCCC3  murine SR-BI (Mus musculus, UniProt Q61009)        -1
22  Cc1ccsc1/C=N/NC(=O)c1cccc([N+](=O)[O-])c1  murine SR-BI (Mus musculus, UniProt Q61009)        -1
23  Cc1ccc(NC(=S)NC(NC(=O)c2ccccc2Cl)C(Cl)(Cl)Cl)cc1 (centres unmarked)  murine SR-BI (Mus musculus, UniProt Q61009)        -1
24    CN(C)CC(=O)Nc1ccc2c(c1)Nc1ccccc1CC2.Cl  murine SR-BI (Mus musculus, UniProt Q61009)        -1
25  Cc1c([N+](=O)[O-])cc(C(=O)Nc2cccc(-c3nc4ccccc4o3)c2)cc1[N+](=O)[O-]  murine SR-BI (Mus musculus, UniProt Q61009)        -1
26  CCn1c(C)c(-c2ccccc2)c2cc([N+](=O)[O-])ccc21  murine SR-BI (Mus musculus, UniProt Q61009)        -1
27  O=C(Nc1ccc(-c2nc3cc(NC(=O)c4ccccc4[N+](=O)[O-])ccc3o2)cc1)c1ccccc1[N+](=O)[O-]  murine SR-BI (Mus musculus, UniProt Q61009)        -1
28  O=C(N/N=C\c1cccn1-c1ccc([N+](=O)[O-])cc1)c1ccccc1  murine SR-BI (Mus musculus, UniProt Q61009)        -1
29          COc1ccc2nc(C(=O)[O-])sc2c1.[Na+]  murine SR-BI (Mus musculus, UniProt Q61009)         1
30        O=C(/C=C/C=C(Cl)Cl)c1ccc2c(c1)OCO2  murine SR-BI (Mus musculus, UniProt Q61009)         1
31  O=C(Nc1cccc(Cl)c1)N1CCN(c2ccc([N+](=O)[O-])cc2)CC1  murine SR-BI (Mus musculus, UniProt Q61009)         1
32  CC(F)(F)c1cccc(NC(=O)c2sc(-c3ccccc3)nc2-c2ccc([N+](=O)[O-])cc2)c1  murine SR-BI (Mus musculus, UniProt Q61009)        -1
33  COc1ccc(NC(=O)Oc2cc(C(C)(C)C)cc(C(C)(C)C)c2)cc1Cl  murine SR-BI (Mus musculus, UniProt Q61009)        -1

====

- Experimental System: murine SR-BI (Mus musculus, UniProt Q61009)
- Construct: expressed in transfected cells; host or cells: ldlA-7 (LDL receptor deficient Chinese hamster ovary cells)
- Sequence (Q61009 1-509): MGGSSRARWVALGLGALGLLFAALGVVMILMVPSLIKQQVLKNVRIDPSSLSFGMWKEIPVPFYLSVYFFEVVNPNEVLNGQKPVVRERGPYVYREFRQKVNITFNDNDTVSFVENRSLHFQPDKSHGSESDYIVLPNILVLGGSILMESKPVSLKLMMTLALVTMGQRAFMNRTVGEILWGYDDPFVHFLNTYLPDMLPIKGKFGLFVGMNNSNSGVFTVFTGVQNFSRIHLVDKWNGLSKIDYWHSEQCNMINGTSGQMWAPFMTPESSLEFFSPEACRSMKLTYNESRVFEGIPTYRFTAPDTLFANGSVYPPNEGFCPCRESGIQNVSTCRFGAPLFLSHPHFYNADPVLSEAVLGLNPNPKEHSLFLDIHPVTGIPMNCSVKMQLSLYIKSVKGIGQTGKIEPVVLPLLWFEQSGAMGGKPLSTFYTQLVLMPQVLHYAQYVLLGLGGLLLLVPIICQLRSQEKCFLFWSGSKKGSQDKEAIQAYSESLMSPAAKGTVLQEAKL
- Procedure Summary: Uptake of DiI from DiI-HDL by ldlA[mSR-BI] cells (high throughput screen and concentration dependence)
- Format: cell-based
- Run Conditions: Test 2; DiI uptake from DiI-HDL, compounds at nominal 10 micromolar, ldlA[mSR-BI] cells
compounds and their reported ENDOHDL Test 2
Experimental Readout: ENDOHDL Test 2

> print(dat)
                            molecule.smiles  readout.number
1    COc1ccc([N+](=O)[O-])cc1NC(=O)c1ccccc1             0.6
2       COc1cccc(C(=O)Nc2nc3ccc(Cl)cc3s2)c1            0.64
3  Cc1ccsc1/C=N/NC(=O)c1cccc([N+](=O)[O-])c1            0.63
4  Clc1ccc(N2CCC/C2=N\c2c3c(nc4ccccc24)N(c2ccccc2)CC3)cc1Cl             0.6
